A short record of Log AP observed with Opioid receptor (Mus musculus) (UniProt P42866+P32300+P33534) follows.
Sequence (P32300 whole entry, looked up): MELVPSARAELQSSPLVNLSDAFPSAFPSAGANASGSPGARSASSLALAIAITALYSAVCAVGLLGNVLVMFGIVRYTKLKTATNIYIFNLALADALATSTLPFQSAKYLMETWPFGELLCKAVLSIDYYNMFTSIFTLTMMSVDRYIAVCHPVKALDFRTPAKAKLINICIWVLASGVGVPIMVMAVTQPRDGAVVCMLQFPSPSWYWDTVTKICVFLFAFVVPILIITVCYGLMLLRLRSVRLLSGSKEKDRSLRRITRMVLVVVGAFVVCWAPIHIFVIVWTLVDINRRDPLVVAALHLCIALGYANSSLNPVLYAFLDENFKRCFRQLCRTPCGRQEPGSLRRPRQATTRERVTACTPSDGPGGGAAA
Sequence (P33534 whole entry, looked up): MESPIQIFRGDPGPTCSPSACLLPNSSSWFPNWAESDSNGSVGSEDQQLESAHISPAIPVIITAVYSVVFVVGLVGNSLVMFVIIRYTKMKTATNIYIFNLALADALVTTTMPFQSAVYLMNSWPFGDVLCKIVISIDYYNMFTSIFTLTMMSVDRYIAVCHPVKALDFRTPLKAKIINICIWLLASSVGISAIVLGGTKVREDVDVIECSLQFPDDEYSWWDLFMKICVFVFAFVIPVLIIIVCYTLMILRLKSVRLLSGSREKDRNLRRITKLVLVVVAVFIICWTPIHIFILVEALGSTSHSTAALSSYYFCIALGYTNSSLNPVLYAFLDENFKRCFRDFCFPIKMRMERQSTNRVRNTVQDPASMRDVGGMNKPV
Sequence (P42866 whole entry, looked up): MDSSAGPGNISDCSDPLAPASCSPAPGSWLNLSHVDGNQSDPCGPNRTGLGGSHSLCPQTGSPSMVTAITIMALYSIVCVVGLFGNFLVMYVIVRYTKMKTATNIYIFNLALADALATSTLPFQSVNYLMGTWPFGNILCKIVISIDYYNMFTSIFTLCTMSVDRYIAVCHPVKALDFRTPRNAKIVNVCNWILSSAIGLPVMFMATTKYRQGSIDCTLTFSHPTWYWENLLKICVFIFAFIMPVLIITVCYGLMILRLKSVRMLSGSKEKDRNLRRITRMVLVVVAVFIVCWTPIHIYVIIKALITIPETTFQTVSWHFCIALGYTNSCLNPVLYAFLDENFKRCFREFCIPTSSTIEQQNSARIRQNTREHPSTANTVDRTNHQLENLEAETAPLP
Output: the number by itself.

Observe how each entry below is paired with its result.
Input: For the record Oc1ccc2c3c1O[C@H]1CCCC4[C@@H](C2)N(CC2CCC2)CC[C@@]341 (stereo partly specified) , what value of Log AP is listed for Opioid receptor (Mus musculus) (UniProt P42866+P32300+P33534)?
Output: 6.49

Input: For the record "C[C@H]1CC(=O)C[C@]23CCN(CC4CCC4)[C@H](Cc4ccc(O)cc42)[C@@H]13" , what value of Log AP is listed for Opioid receptor (Mus musculus) (UniProt P42866+P32300+P33534)?
Output: 5.75

Input: For the record CC[C@H]1CCC[C@]23CCN(CC4CCC4)[C@H](Cc4ccc(OC)cc42)C13 (stereo partly specified) , what value of Log AP is listed for Opioid receptor (Mus musculus) (UniProt P42866+P32300+P33534)?
Output: 5.47

Input: For the record CC1CC[C@]23CCN(CC4CC4)[C@H](Cc4ccc(O)cc42)C3C1 (stereo partly specified) , what value of Log AP is listed for Opioid receptor (Mus musculus) (UniProt P42866+P32300+P33534)?
Output: 5.24

Input: For the record COc1ccc2c(c1)[C@@]13CCC[C@H](C)C1[C@@H](C2)N(C)CC3 (stereo partly specified) , what value of Log AP is listed for Opioid receptor (Mus musculus) (UniProt P42866+P32300+P33534)?
Output: 5.87

Input: For the record CC[C@H]1C(C)CC[C@]23CCN(CC4CCC4)[C@H](Cc4ccc(OC)cc42)C13 (stereo partly specified) , what value of Log AP is listed for Opioid receptor (Mus musculus) (UniProt P42866+P32300+P33534)?
Output: 5.04

Input: For the record CN1CC[C@]23c4c5ccc(O)c4O[C@H]2CCCC3[C@H]1C5 (stereo partly specified) , what value of Log AP is listed for Opioid receptor (Mus musculus) (UniProt P42866+P32300+P33534)?
Output: 5.95

Input: For the record "COc1ccc2c(c1)[C@]13CCN(C)[C@H](C2)[C@@H]1C=CC(=O)C3" , what value of Log AP is listed for Opioid receptor (Mus musculus) (UniProt P42866+P32300+P33534)?
Output: 6.45

Input: For the record CC[C@H]1CC[C@@H]2Oc3c(OC)ccc4c3[C@@]23CCN(CC2CC2)[C@H](C4)C13 (stereo partly specified) , what value of Log AP is listed for Opioid receptor (Mus musculus) (UniProt P42866+P32300+P33534)?
Output: 5.18

Input: For the record COc1ccc2c3c1O[C@H]1CCCC4[C@@H](C2)N(CC2CCC2)CC[C@@]341 (stereo partly specified) , what value of Log AP is listed for Opioid receptor (Mus musculus) (UniProt P42866+P32300+P33534)?
Output: 5.58

Now look at this entry.
Input: For the record CCC[C@H]1CCC[C@]23CCN(CC4CC4)[C@H](Cc4ccc(OC)cc42)C13 (stereo partly specified) , what value of Log AP is listed for Opioid receptor (Mus musculus) (UniProt P42866+P32300+P33534)?
Output: 4.76

----------
A short record of Log AP observed with Opioid receptor (Mus musculus) (UniProt P42866+P32300+P33534) follows.
Output: the number by itself.

Observe how each entry below is paired with its result.
Input: For the molecule CC[C@H]1CCC[C@]23CCN(C)[C@H](Cc4ccc(OC)cc42)C13 (stereo not given in full) , what Log AP is on record?
Output: 5.93

Input: For the molecule C[C@H]1CCC2Oc3c(O)ccc4c3[C@@]23CCN(C)[C@H](C4)C13 (stereo not given in full) , what Log AP is on record?
Output: 6.03

Input: For the molecule COc1ccc2c(c1)[C@@]13CCC[C@H](C)C1[C@@H](C2)N(CC1CCC1)CC3 (stereo not given in full) , what Log AP is on record?
Output: 5.99

Continuing:
Input: For the molecule CC1CC[C@]23CCN(C)[C@H](Cc4ccc(O)cc42)C3C1 (stereo not given in full) , what Log AP is on record?
Output: 5.56

Input: For the molecule CC[C@H]1CCC[C@]23CCN(CC4CC4)[C@H](Cc4ccc(OC)cc42)C13 (stereo not given in full) , what Log AP is on record?
Output: 5.91

----------
A short record of Log AP observed with Opioid receptor (Mus musculus) (UniProt P42866+P32300+P33534) follows.

Observe how each entry below is paired with its result.
Input: For the record "COc1ccc2c(c1)[C@@]13CCCC[C@H]1[C@@H](C2)N(C)CC3" , what value of Log AP is listed for Opioid receptor (Mus musculus) (UniProt P42866+P32300+P33534)?
Output: 5.84

Input: For the record CCC[C@H]1CCC[C@]23CCN(C)[C@H](Cc4ccc(OC)cc42)C13 (stereo partly drawn) , what value of Log AP is listed for Opioid receptor (Mus musculus) (UniProt P42866+P32300+P33534)?
Output: 4.9

Input: For the record "COc1ccc2c(c1)[C@]13CCN(C)[C@H](C2)[C@@H]1C=C(C)C(=O)C3" , what value of Log AP is listed for Opioid receptor (Mus musculus) (UniProt P42866+P32300+P33534)?
Output: 5.67

Input: For the record COc1ccc2c3c1O[C@H]1CCCC4[C@@H](C2)N(C)CC[C@@]341 (stereo partly drawn) , what value of Log AP is listed for Opioid receptor (Mus musculus) (UniProt P42866+P32300+P33534)?
Output: 5.54

Input: For the record COc1ccc2c3c1O[C@H]1CCCC4[C@@H](C2)N(CC2CC2)CC[C@@]341 (stereo partly drawn) , what value of Log AP is listed for Opioid receptor (Mus musculus) (UniProt P42866+P32300+P33534)?
Output: 6.2

Input: For the record COc1ccc2c(c1)[C@@]13CCC(C)[C@H](C)C1[C@@H](C2)N(C)CC3 (stereo partly drawn) , what value of Log AP is listed for Opioid receptor (Mus musculus) (UniProt P42866+P32300+P33534)?
Output: 5.95

Input: For the record COc1ccc2c3c1OC1CC[C@H](C)C4[C@@H](C2)N(CC2CC2)CC[C@]314 (stereo partly drawn) , what value of Log AP is listed for Opioid receptor (Mus musculus) (UniProt P42866+P32300+P33534)?
Output: 5.16

Input: For the record CC[C@H]1C(C)CC[C@]23CCN(CC4CCC4)[C@H](Cc4ccc(O)cc42)C13 (stereo partly drawn) , what value of Log AP is listed for Opioid receptor (Mus musculus) (UniProt P42866+P32300+P33534)?
Output: 5.82

Input: For the record COc1ccc2c(c1)[C@@]13CCC(C)CC1[C@@H](C2)N(CC1CCC1)CC3 (stereo partly drawn) , what value of Log AP is listed for Opioid receptor (Mus musculus) (UniProt P42866+P32300+P33534)?
Output: 5.16

Input: For the record COc1ccc2c(c1)[C@@]13CCCCC1[C@@H](C2)N(CC1CC1)CC3 (stereo partly drawn) , what value of Log AP is listed for Opioid receptor (Mus musculus) (UniProt P42866+P32300+P33534)?
Output: 6.87

Continuing:
Input: For the record COc1ccc2c(c1)[C@]13CCN(CC4CCC4)[C@H](C2)[C@H]1CC(C)C(=O)C3 (stereo partly drawn) , what value of Log AP is listed for Opioid receptor (Mus musculus) (UniProt P42866+P32300+P33534)?
Output: 4.68

Input: For the record "C=C1C[C@H](C)[C@H]2[C@H]3Cc4ccc(O)cc4[C@@]2(CCN3CC2CCC2)C1" , what value of Log AP is listed for Opioid receptor (Mus musculus) (UniProt P42866+P32300+P33534)?
Output: 6.07

Input: For the record "Oc1ccc2c(c1)[C@@]13CCCC[C@H]1[C@@H](C2)N(CC1CCC1)CC3" , what value of Log AP is listed for Opioid receptor (Mus musculus) (UniProt P42866+P32300+P33534)?
Output: 6.45

Input: For the record C[C@H]1CC[C@@H]2Oc3c(O)ccc4c3[C@@]23CCN(CC2CCC2)[C@H](C4)C13 (stereo partly drawn) , what value of Log AP is listed for Opioid receptor (Mus musculus) (UniProt P42866+P32300+P33534)?
Output: 6.41

Input: For the record CC[C@H]1C(C)CC[C@]23CCN(C)[C@H](Cc4ccc(OC)cc42)C13 (stereo partly drawn) , what value of Log AP is listed for Opioid receptor (Mus musculus) (UniProt P42866+P32300+P33534)?
Output: 5.69

Input: For the record COc1ccc2c(c1)[C@@]13CCC(C)CC1[C@@H](C2)N(CC1CC1)CC3 (stereo partly drawn) , what value of Log AP is listed for Opioid receptor (Mus musculus) (UniProt P42866+P32300+P33534)?
Output: 5.97

Input: For the record CC1CC[C@]23CCN(CC4CCC4)[C@H](Cc4ccc(O)cc42)C3[C@H]1C (stereo in doubt; 40) , what value of Log AP is listed for Opioid receptor (Mus musculus) (UniProt P42866+P32300+P33534)?
Output: 6.23

Input: For the record "O=C1CC[C@@H]2[C@H]3Cc4ccc(O)cc4[C@@]2(CCN3CC2CCC2)C1" , what value of Log AP is listed for Opioid receptor (Mus musculus) (UniProt P42866+P32300+P33534)?
Output: 5.92

Input: For the record CCC[C@H]1CC[C@@H]2Oc3c(OC)ccc4c3[C@@]23CCN(C)[C@H](C4)C13 (stereo partly drawn) , what value of Log AP is listed for Opioid receptor (Mus musculus) (UniProt P42866+P32300+P33534)?
Output: 4.87

Input: For the record COc1ccc2c(c1)[C@@]13CCC(C)[C@H](C)C1[C@@H](C2)N(CC1CC1)CC3 (stereo partly drawn) , what value of Log AP is listed for Opioid receptor (Mus musculus) (UniProt P42866+P32300+P33534)?
Output: 6.15

Input: For the record COc1ccc2c3c1OC1CC[C@H](C)C4[C@@H](C2)N(CC2CCC2)CC[C@]314 (stereo partly drawn) , what value of Log AP is listed for Opioid receptor (Mus musculus) (UniProt P42866+P32300+P33534)?
Output: 5.26

Input: For the record C[C@H]1CCC[C@]23CCN(CC4CCC4)[C@H](Cc4ccc(O)cc42)C13 (stereo in doubt; 46) , what value of Log AP is listed for Opioid receptor (Mus musculus) (UniProt P42866+P32300+P33534)?
Output: 6.41
